These measurements were taken from paper PMC4721638.

target: T1, peptide 2b (VEGEGEEEGEEY); test: SPR
T1 peptide: Ac-C[Ahx]VEGEGEEEGEEY-NH2
[ ]: non-standard residue; d: D form. Ahx = NCCCCCC(=O)O
parameter_measured: pKd
Bear in mind: pKd is minus log10 of a mol/L concentration; give just that figure.

-- ask Which measured pKd value corresponds to Recombinant protein RHAMM-CT (aa. 706–767) (domain or fragment) RDSYAQLLGHQNLKQKIKHVVKLKDENSQLKSEVSKLRSQLVKRKQNELRLQGELDKLQI ?
-- reply 7.62
